procedureSummary: Cytotoxicity to normal venous endothelial cells (MTT dye reduction assay)
Assay type: cell-based, human
testParameters: human, normal venous endothelial cells, W-188 50 μg/mL, etoposide 0 μM; 6 h
measuredParameter: cytotoxicity at 6 h, 50 μg/mL (%)
Answers are plain numbers, in %.

Data point: CCC1=C(C)C(/C=C2\NC(=O)C(C)=C2CC)=NC/1=C\c1[nH]c(/C=C2\NC(=O)C(C)=C2CC)c(C)c1CC ; cytotoxicity at 6 h, 50 μg/mL = 22

----------
procedureSummary: Cytotoxicity to normal venous endothelial cells (MTT dye reduction assay)
Assay type: cell-based, human
testParameters: human, normal venous endothelial cells, etoposide 100 μM + W-188 25 μg/mL; 6 h
measuredParameter: cytotoxicity at 6 h, 25 μg/mL

Reported cytotoxicity at 6 h, 25 μg/mL of CCC1=C(C)C(/C=C2\NC(=O)C(C)=C2CC)=NC/1=C\c1[nH]c(/C=C2\NC(=O)C(C)=C2CC)c(C)c1CC [W-188, etiobiliverdin-IV] : 11%

----------
procedureSummary: Cytotoxicity to normal venous endothelial cells (MTT dye reduction assay)
Type: cell-based, human
testParameters: human, normal venous endothelial cells, etoposide 100 μM, W-188 0 μg/mL; 6 h
measuredParameter: cytotoxicity at 6 h, 100 μM (%)
Answers are plain numbers, in %.

GET /value?item= COc1cc([C@@H]2c3cc4c(cc3[C@@H](O[C@@H]3O[C@@H]5CO[C@@H](C)O[C@H]5[C@H](O)[C@H]3O)[C@H]3COC(=O)[C@H]23)OCO4)cc(OC)c1O [Etoposide] &field=cytotoxicity at 6 h, 100 μM returns 22

----------
Test system: HL-60 Bcl-2 cells
procedureSummary: DNA fragmentation (release of 3H-labeled DNA fragments) in Bcl-2-transfected HL-60 cells
Assay type: cell-based, human
testParameters: Exp 3; etoposide 5 μM + compound 20 μM
measuredParameter: % DNA Fragmentation (%)
One number for each entry, in %.

>>> df
                                   compound  unitlabel  resultnumber
0  C=CC1=C(C)c2cc3[n-]c(cc4[n-]c(cc5nc(cc1n2)C(C)=C5C=C)c(C)c4CCC(=O)O)c(CCC(=O)O)c3C.[Zn+2] [Zn protoporphyrin IX]          %            19
1  C=CC1=C(C)/C(=C/C2=NC(=C\c3[nH]c(/C=C4\NC(=O)C(C)=C4C=C)c(C)c3CCC(=O)O)/C(CCC(=O)O)=C2C)NC1=O [biliverdin]          %            20
2  C=CC1=C(C)c2cc3[n-]c(cc4[n-]c(cc5nc(cc1n2)C(C)=C5C=C)c(C)c4CCC(=O)O)c(CCC(=O)O)c3C.[Fe+2] [Fe protoporphyrin IX]          %            17

# context switch: different compound, same % DNA Fragmentation
Record summary for C=CC1=C(C)c2cc3[n-]c(cc4[n-]c(cc5nc(cc1n2)C(C)=C5C=C)c(C)c4CCC(=O)O)c(CCC(=O)O)c3C.[Sn+4] [Sn protoporphyrin IX] : reported % DNA Fragmentation = 5

----------
procedureSummary: Cytotoxicity to normal venous endothelial cells (MTT dye reduction assay)
Assay type: cell-based, human
testParameters: human, normal venous endothelial cells, YW-200 0.01 μM + W-188 25 μg/mL; 6 h
measuredParameter: cytotoxicity at 6 h, 25 μg/mL
Answer format: value, then unit.

Notebook: CCC1=C(C)C(/C=C2\NC(=O)C(C)=C2CC)=NC/1=C\c1[nH]c(/C=C2\NC(=O)C(C)=C2CC)c(C)c1CC [W-188, etiobiliverdin-IV] , cytotoxicity at 6 h, 25 μg/mL read as 38%
